# protocol.conditions: human, plasma, oral, 25 mg, AUC, one subject on concomitant darunavir/ritonavir; second trimester
value.kind: AUC (ng·h/mL)
Express your answer in ng·h/mL, writing the number without its unit.

Note to self: AUC recorded for Cc1cc(/C=C/C#N)cc(C)c1Nc1ccnc(Nc2ccc(C#N)cc2)n1 was 12400

----------
# protocol.conditions: female, human, plasma, oral, 25 mg, Cmax, 25 mg once daily; second trimester; median (range)
value.kind: Cmax (ng/mL)
Answer with a number only, understood to be in ng/mL.

Value of measured Cmax for the entry Cc1cc(/C=C/C#N)cc(C)c1Nc1ccnc(Nc2ccc(C#N)cc2)n1 : 145

----------
# protocol.conditions: female, human, plasma, oral, 25 mg, Vd/F (apparent volume of distribution), 25 mg once daily; third trimester; median (range)
value.kind: Vd/F

Value of Vd/F reported for the molecule Cc1cc(/C=C/C#N)cc(C)c1Nc1ccnc(Nc2ccc(C#N)cc2)n1 is 1210 L

----------
# protocol.conditions: human, plasma, oral, 25 mg, AUC, one subject on concomitant darunavir/ritonavir; third trimester
value.kind: AUC (µg·h/mL)
Could you give me the number in µg·h/mL? Just the number is fine.

Given item Cc1cc(/C=C/C#N)cc(C)c1Nc1ccnc(Nc2ccc(C#N)cc2)n1 , the value recorded as its AUC is 3.6

----------
# protocol.conditions: female, human, plasma, oral, 25 mg, C24 (24 hour post-dose concentration), 25 mg once daily; second trimester; median (range)
value.kind: concentration at 24 h (ng/mL)
Return type: number; implicit unit ng/mL.

Entry under test: Cc1cc(/C=C/C#N)cc(C)c1Nc1ccnc(Nc2ccc(C#N)cc2)n1 [Rilpivirine] . Its concentration at 24 h was 63

----------
# protocol.conditions: female, human, plasma, oral, 25 mg, Tmax, 25 mg once daily; third trimester; mode (range)
value.kind: Tmax
Mention the unit after the number when you answer.

Field Tmax (entry Cc1cc(/C=C/C#N)cc(C)c1Nc1ccnc(Nc2ccc(C#N)cc2)n1 ) reads 2 h

----------
# protocol.conditions: female, human, plasma, oral, 25 mg, Cmax, 25 mg once daily; postpartum; median (range)
value.kind: Cmax (ng/mL)
Your answer is read as ng/mL, so omit the unit and give the number.

Entry Cc1cc(/C=C/C#N)cc(C)c1Nc1ccnc(Nc2ccc(C#N)cc2)n1 ; Cmax = 134

----------
# method.summary: clinical
# protocol.conditions: female, human, in vivo
value.kind: Kp
The answer should be a number; do not append a unit.

Lab book: Kp of Cc1cc(/C=C/C#N)cc(C)c1Nc1ccnc(Nc2ccc(C#N)cc2)n1 noted as 0.55

----------
# protocol.conditions: female, human, plasma, oral, 25 mg, Vd/F (apparent volume of distribution), 25 mg once daily; second trimester; median (range)
value.kind: Vd/F (L)
# output: bare number, implied unit L

The value of Vd/F measured for the compound Cc1cc(/C=C/C#N)cc(C)c1Nc1ccnc(Nc2ccc(C#N)cc2)n1 turned out to be 750
